Data provenance is ChEMBL document CHEMBL5325403.

test system: Escherichia coli; experiment: Antibacterial activity against Escherichia coli assessed as inhibition of bacterial growth by continuous dilution method; type: functional
In this section, each of the compounds is paired with its reported MIC.
MEASURED METRIC: MIC (µg/mL)

| LINE NOTATION | MEASURED METRIC | READOUT UNITS | MEAS VALUE |
| --- | --- | --- | --- |
| CC(=O)Nc1ccc(S(=O)(=O)C/C(=N/NC(=O)c2ccccn2)c2nccs2)cc1 | MIC | µg/mL | 32 |
| CCCCCCO/N=C(/CS(=O)(=O)c1ccc(N)cc1)c1nccs1 | MIC | µg/mL | 16 |
| CCn1cc(C(=O)O)c(=O)c2cc(F)c(N3CCNCC3)cc21 | MIC | µg/mL | 16 |
| CCCCCCCCO/N=C(/CS(=O)(=O)c1ccc(NC(C)=O)cc1)c1nccs1 | MIC | µg/mL | 32 |
| CC(=O)Nc1ccc(S(=O)(=O)/C(=C\c2ccc(C#N)cc2)C(=O)c2nccs2)cc1 | MIC | µg/mL | 32 |
| CC(=O)Nc1ccc(S(=O)(=O)C/C(=N/O)c2nccs2)cc1 | MIC | µg/mL | 64 |
| CC(=O)Nc1ccc(S(=O)(=O)C/C(=N/NC(=O)c2ccncc2)c2nccs2)cc1 | MIC | µg/mL | 128 |
| CCCCO/N=C(/CS(=O)(=O)c1ccc(NC(C)=O)cc1)c1nccs1 | MIC | µg/mL | 32 |
| CC(=O)Nc1ccc(S(=O)(=O)C/C(=N/OCC#N)c2nccs2)cc1 | MIC | µg/mL | 32 |
| CCO/N=C(/CS(=O)(=O)c1ccc(NC(C)=O)cc1)c1nccs1 | MIC | µg/mL | 32 |
